// IC50 lookup, one value per entry
# EXPERIMENTAL SYSTEM: neutral endopeptidase (NEP) (Homo sapiens, UniProt P08473)
# Sequence (P08473 whole entry, species assumed): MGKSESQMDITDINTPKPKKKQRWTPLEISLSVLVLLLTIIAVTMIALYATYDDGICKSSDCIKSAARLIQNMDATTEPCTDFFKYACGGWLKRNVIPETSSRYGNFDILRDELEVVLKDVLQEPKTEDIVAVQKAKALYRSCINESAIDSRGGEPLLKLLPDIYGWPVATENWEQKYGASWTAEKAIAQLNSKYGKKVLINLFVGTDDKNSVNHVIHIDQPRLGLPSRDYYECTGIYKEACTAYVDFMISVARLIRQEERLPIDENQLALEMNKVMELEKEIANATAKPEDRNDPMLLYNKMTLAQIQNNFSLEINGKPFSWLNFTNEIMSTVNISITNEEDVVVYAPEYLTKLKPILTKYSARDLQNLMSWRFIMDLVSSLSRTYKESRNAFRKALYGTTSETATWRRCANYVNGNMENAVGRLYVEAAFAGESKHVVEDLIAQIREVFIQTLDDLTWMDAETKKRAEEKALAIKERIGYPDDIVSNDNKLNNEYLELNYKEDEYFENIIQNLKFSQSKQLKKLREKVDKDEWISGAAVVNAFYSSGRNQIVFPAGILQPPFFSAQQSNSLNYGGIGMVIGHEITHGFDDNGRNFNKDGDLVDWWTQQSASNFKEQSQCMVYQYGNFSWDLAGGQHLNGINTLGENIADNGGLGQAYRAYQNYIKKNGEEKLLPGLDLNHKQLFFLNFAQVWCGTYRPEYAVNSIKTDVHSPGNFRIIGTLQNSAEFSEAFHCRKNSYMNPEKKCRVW
# METHOD SUMMARY: Enzymatic inhibition of neutral endopeptidase, [3H]D-Ala2-Leu-enkephalin as substrate
# Format: biochemical
# TEST CONDITIONS: Table IV

[
  {
    "COMPOUND": "CC(c1ccc(F)c(F)c1)C(CS)C(=O)N[C@@H](C)C(=O)O (some centres unmarked)",
    "EXPERIMENTAL SYSTEM": "neutral endopeptidase (NEP) (Homo sapiens, UniProt P08473)",
    "IC50 (nM)": 3
  },
  {
    "COMPOUND": "CC(c1ccc(O)cc1)C(CS)C(=O)N[C@@H](C)C(=O)O (some centres unmarked)",
    "EXPERIMENTAL SYSTEM": "neutral endopeptidase (NEP) (Homo sapiens, UniProt P08473)",
    "IC50 (nM)": 3.5
  },
  {
    "COMPOUND": "CC(=O)SC(C(=O)N[C@@H](Cc1ccc(O)cc1)C(=O)O)C(C)c1ccc(F)cc1 (some centres unmarked)",
    "EXPERIMENTAL SYSTEM": "neutral endopeptidase (NEP) (Homo sapiens, UniProt P08473)",
    "IC50 (nM)": 4.8
  },
  {
    "COMPOUND": "CC(c1ccccc1)C(CS)C(=O)NCC(=O)O (centres unmarked)",
    "EXPERIMENTAL SYSTEM": "neutral endopeptidase (NEP) (Homo sapiens, UniProt P08473)",
    "IC50 (nM)": 1.3
  },
  {
    "COMPOUND": "CC(c1ccc(O)cc1)C(CS)C(=O)N[C@@H](Cc1ccc(O)cc1)C(=O)O (some centres unmarked)",
    "EXPERIMENTAL SYSTEM": "neutral endopeptidase (NEP) (Homo sapiens, UniProt P08473)",
    "IC50 (nM)": 1.8
  }
]
